// values below are reported TGI
Tested on: MDA-N
Assay: NCI tumour cell line growth inhibition, 48 h

molecule="CC(=O)OCC(C)(COC(C)=O)N1C(=O)C2C3c4ccccc4C(c4ccccc43)C2C1=O (stereo unspecified)" measurement_kind=TGI result="> 100 µM"

Entry under test: CSC1=NNC(SC)=NN1 . Its TGI was 0.319 µM

Entry under test: O=C1c2ccccc2C2C1C(c1ccccc1)C1(Cc3ccccc3C1=O)C2c1ccccc1 (stereo unspecified) . Its TGI was > 100 µM

Entry under test: O=c1c(-c2ccccc2F)coc2cc(F)ccc12 . Its TGI was > 100 µM

Entry under test: NC(=O)SCCC(N)C(=O)O (stereo unspecified) . Its TGI was > 100 µM

Entry under test: COc1cc2c(cc1O)C1(Cc3ccc4c(c3C1=O)OCO4)N(C)CC2 (stereo unspecified) . Its TGI was > 100 µM

----------
Tested on: NCI-H23 lung
Experiment: NCI tumour cell line growth inhibition, 48 h
measurement-kind: TGI (µM)
Reply numerically in µM, unit not repeated.

structure=CCOC(=O)c1c(C)n(C)c2c1cc(O)c1[nH]c3c(c12)CCCC3 numeric_readout=52.7

Below: the item to evaluate.
The compound C/C(=N\NC(=S)SCc1ccccc1)c1ccccn1 , tested on NCI-H23 lung, showed TGI of 9.31

----------
System: SK-MEL-28 melanoma
Experiment: NCI tumour cell line growth inhibition, 48 h
measurement-kind: TGI

The following compounds have reported results that may help.
compound=COc1ccc2c(c1)C(=O)/C(=C/c1ccc([N+](=O)[O-])o1)O2 result="3.22 µM"
compound=CSC1=NNC(SC)=NN1 result="0.326 µM"
compound="CN(C)c1ccc(C2CC(c3ccc4ccccc4c3O)=NN2c2ccc([N+](=O)[O-])cc2[N+](=O)[O-])cc1 (stereo not drawn)" result="> 100 µM"
compound=Cc1ccc(C(=O)/C=C/c2cccc([N+](=O)[O-])c2)cc1 result="> 100 µM"
compound="CSC(=S)OC1CC(n2cnc3c(NC(=O)c4ccccc4)ncnc32)OC1CO[Si](C)(C)C(C)(C)C (stereo not drawn)" result="> 46.4 µM"
compound="O=C(N/N=C1\\C(=O)N(c2nccs2)C(=O)C(=O)C1c1nc2ccccc2s1)c1ccccc1O (stereo not drawn)" result="> 100 µM"
compound=CCOC(=O)c1cc(-c2ccccc2)[nH]c1N/N=C/c1ccc(Cl)cc1 result="> 100 µM"
compound=CN(C)c1nncc2n[nH]nc12 result="> 100 µM"
compound=O=c1c(-c2ccccc2F)coc2cc(F)ccc12 result="> 100 µM"
compound="O=C1C2C(C(=O)N1c1ccccc1)C1([N+](=O)[O-])C=C3c4ccccc4N(C(=O)c4ccccc4)C32C2C(=O)N(c3ccccc3)C(=O)C21 (stereo not drawn)" result="> 100 µM"

Entry under test: O=C1/C(=C/c2ccc(Cl)cc2)CCC/C1=C\c1ccc(Cl)cc1 . Its TGI was > 100 µM

Entry under test: CC(=O)O[C@H](C[C@H](C(C)C)N(C)C(=O)[C@@H](NC(=O)[C@H]1CCCN1C)C(C)C)c1nc(C(=O)N[C@@H](Cc2ccccc2)C[C@H](C)C(=O)O)c(C)s1 . Its TGI was > 16.7 µM

Entry under test: CCOC(=O)C#Cc1c(C(=O)OCC)nnn1Cc1ccc([N+](=O)[O-])cc1 . Its TGI was 10.2 µM
